Just for reference, ChEMBL document CHEMBL4418315 is where these values come from.

A collection of compounds and their measured inhibition
biological target: Ubiquitin-like modifier-activating enzyme ATG7 (Homo sapiens); assay: Inhibition of recombinant His-tagged human ATG7 at 0.111 uM incubated for 105 mins in presence of GST-tagged ATG3 and Flag-tagged Gabarap and measured after 2 hrs by FRET assay relative to control
Write the number in % without appending the unit.

Here's what some known entries look like.
Smiles Data | Endpoint Value
CC[C@H](C)Sc1nn([C@@H]2O[C@H](COS(N)(=O)=O)[C@@H](O)[C@@H]2F)c2ncnc(N)c12 | 61
Nc1ncnc2c1cnn2[C@H]1C[C@H](O)[C@H](COS(N)(=O)=O)O1 | 5

# inhibition (compound: "CC[C@@H](C)Sc1nn([C@@H]2O[C@H](COS(N)(=O)=O)[C@@H](O)[C@@H]2F)c2ncnc(N)c12" ) is 63
